assay system: Gag-Pol polyprotein (Human immunodeficiency virus type 1 group M subtype B (isolate HXB2)) (UniProt P04585)
procedure summary: RNase H inhibition, HIV 1 Gag Pol polyprotein, FRET biochemical assay, screening (AID 372)
setup conditions: HIV-1 RT RNase H, FRET RNA/DNA substrate fluorescence; at 10 µM; stronger effect = higher value
The campaign covered roughly 100,000 compounds. About 770 (0.77%) were called active. This excerpt belongs to a sample that is enriched for actives.
Cut-off 9% on inhibition, inclusive. At or above means Criterion met; below means Criterion not met.

{"compound": "CC(C)c1ccc(/C=C2/C(=O)NN(c3ccccc3)C2=O)cc1", "assigned category": "Criterion not met"}
{"compound": "COC(=O)CN1C(=O)c2cccc3cccc(c23)C1=O", "assigned category": "Criterion not met"}
{"compound": "c1ccc(N2N=C(c3cccs3)CC2c2cccs2)cc1 (centres undefined)", "assigned category": "Criterion not met"}
{"compound": "O=c1c(N=Nc2ccc(Br)cc2)c(O)n(-c2ccccc2)c(=O)n1-c1ccccc1", "assigned category": "Criterion met"}
{"compound": "O=C1NC(=O)N(c2ccc(Cl)cc2)C(=O)/C1=C\\C=C\\c1ccccc1[N+](=O)[O-]", "assigned category": "Criterion met"}
{"compound": "Cc1cccc(C(=O)NC(=S)Nc2ccc(-c3nc4ccccc4s3)cc2)c1", "assigned category": "Criterion met"}
{"compound": "Cc1ccc2nc(-c3ccc(NC(=S)NC(=O)c4ccccc4F)cc3)sc2c1", "assigned category": "Criterion met"}
{"compound": "Cc1ccc2nc(-c3ccc(NC(=S)NC(=O)c4cccc(F)c4)cc3)sc2c1", "assigned category": "Criterion met"}
{"compound": "O=C(NN1C(=O)c2ccc(C(=O)c3ccc4c(c3)C(=O)N(NC(=O)c3ccncc3)C4=O)cc2C1=O)c1ccncc1", "assigned category": "Criterion not met"}
{"compound": "CC(=O)ON=C1CC(C)(C)NC(C)(C)C1", "assigned category": "Criterion not met"}
{"compound": "CCCOc1ncnc2sc3c(c12)CCCC3", "assigned category": "Criterion met"}
{"compound": "Cc1ccccc1N1C(=O)/C(=C/c2ccc(I)o2)C(=O)NC1=S", "assigned category": "Criterion met"}
{"compound": "O=C1NC(=S)N(c2ccccc2)C(=O)/C1=C\\C=C\\c1ccccc1[N+](=O)[O-]", "assigned category": "Criterion met"}
{"compound": "O=C(Nc1ccc(Cl)cc1)Nc1ccc(-c2nc3ccccc3s2)cc1", "assigned category": "Criterion met"}
{"compound": "Cc1ccc2nc(-c3ccc(NC(=S)NC(=O)c4ccccc4)cc3)sc2c1", "assigned category": "Criterion not met"}
{"compound": "O=C1NC(=S)N(c2cccc(Cl)c2Cl)C(=O)/C1=C/c1ccc(I)o1", "assigned category": "Criterion met"}
{"compound": "Cc1cc(C)nc(SCC(=O)c2ccc(F)cc2)n1", "assigned category": "Criterion met"}
{"compound": "OC(COc1ccccc1Cl)Cn1cnc2ccccc21 (centres undefined)", "assigned category": "Criterion not met"}
{"compound": "O=C(CSCc1cccc(Br)c1)N=Nc1c(O)[nH]c2ccccc12", "assigned category": "Criterion met"}
{"compound": "Cc1sc2nc(SCC(N)=O)[nH]c(=O)c2c1C", "assigned category": "Criterion not met"}
{"compound": "C#CCOc1ccc(C=C2C(=O)NC(=S)NC2=O)cc1Br", "assigned category": "Criterion met"}
{"compound": "N#C/C(=C/c1ccc(-c2ccccc2[N+](=O)[O-])o1)C(=O)NCc1ccccc1", "assigned category": "Criterion met"}
{"compound": "CCOC(=O)Cc1csc(NC(=O)COc2c(C)cccc2C)n1", "assigned category": "Criterion not met"}
{"compound": "O=C1NC(=O)N(c2ccccc2F)C(=O)/C1=C/c1ccc(I)o1", "assigned category": "Criterion not met"}
{"compound": "Cc1ccc(NC(=O)CN(c2ccc(Br)cc2)S(=O)(=O)c2ccccc2)cc1Cl", "assigned category": "Criterion not met"}
{"compound": "CCOC(=O)c1c(NC(=O)CSc2nccn2C)sc2c1CCCC2", "assigned category": "Criterion not met"}
{"compound": "O=C1C2C3C=CC(CC3)C2C(=O)N1/N=C/c1ccccc1O (centres undefined)", "assigned category": "Criterion not met"}
{"compound": "O=C1C2C3C=CC(CC3)C2C(=O)N1/N=C/c1cccs1 (centres undefined)", "assigned category": "Criterion met"}
{"compound": "O=C(Nc1ccc2oc(-c3cccc(Br)c3)nc2c1)c1ccc(Cl)c([N+](=O)[O-])c1", "assigned category": "Criterion met"}
{"compound": "Cc1ccc2nc(-c3ccc(NC(=O)c4cccc(F)c4)cc3)sc2c1", "assigned category": "Criterion met"}
{"compound": "Cc1cc(C)c2c(=O)[nH]c(SCC(=O)c3ccc(Br)cc3)nc2n1", "assigned category": "Criterion met"}
{"compound": "O=C1C2C3C=CC(C3)C2C(=O)N1/N=C/c1ccccc1I (centres undefined)", "assigned category": "Criterion not met"}
{"compound": "O=C(COC(=O)c1ccccc1Cl)c1ccc(Cl)cc1Cl", "assigned category": "Criterion met"}
{"compound": "Cc1ccc2nc(-c3ccc(NC(=O)CCc4ccccc4)cc3)sc2c1", "assigned category": "Criterion not met"}
{"compound": "O=C1C(=O)N(c2nccs2)C(c2ccccc2F)/C1=C(/O)c1ccc(Cl)cc1 (centres undefined)", "assigned category": "Criterion met"}
{"compound": "O=C1C2C3C=CC(CC3)C2C(=O)N1/N=C/c1ccccc1I (centres undefined)", "assigned category": "Criterion met"}
{"compound": "O=C1NC(=S)N(c2cccc(Cl)c2Cl)C(=O)/C1=C/c1ccc(Cl)cc1", "assigned category": "Criterion met"}
{"compound": "Cc1ccc2nc(-c3ccc(NC(=O)Cc4ccc(Cl)cc4)cc3)sc2c1", "assigned category": "Criterion met"}
{"compound": "O=C1C2C3C=CC(CC3)C2C(=O)N1/N=C/c1ccc(O)cc1 (centres undefined)", "assigned category": "Criterion not met"}
{"compound": "CC1=C(C#N)C(c2ccccc2C(F)(F)F)C2=C(CCCC2=O)N1 (centres undefined)", "assigned category": "Criterion met"}
{"compound": "Cc1ccc(S(=O)(=O)/N=C2/C=C(N3CCOCC3)C(=O)c3ccccc32)cc1", "assigned category": "Criterion not met"}
{"compound": "O=S(=O)(c1cc(Cl)ccc1Cl)n1ccnc1", "assigned category": "Criterion not met"}
{"compound": "CC(C)(C)NCCOc1ccc(Cl)cc1Cl", "assigned category": "Criterion not met"}
